Entry source: patent US8802720B2

This section presents compounds with their documented pIC50 values.
# targetOfAssay: human Edg-2 receptor (LPA1 receptor) (Homo sapiens, UniProt Q92633)
# Sequence (Q92633 whole entry): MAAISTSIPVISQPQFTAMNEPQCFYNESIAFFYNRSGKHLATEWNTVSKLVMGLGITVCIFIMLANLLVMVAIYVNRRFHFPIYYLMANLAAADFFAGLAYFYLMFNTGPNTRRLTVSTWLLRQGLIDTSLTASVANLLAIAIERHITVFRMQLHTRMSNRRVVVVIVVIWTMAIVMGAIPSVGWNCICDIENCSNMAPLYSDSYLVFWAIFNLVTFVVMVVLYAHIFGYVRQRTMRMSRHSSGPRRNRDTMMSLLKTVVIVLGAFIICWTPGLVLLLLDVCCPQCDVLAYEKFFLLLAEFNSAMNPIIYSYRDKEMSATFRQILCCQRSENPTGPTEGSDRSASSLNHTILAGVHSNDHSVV
# experimentalDetails: Edg-2 receptor inhibition by FLIPR calcium fluorescence measurement (LPA-mediated calcium liberation)
# protocolConditions: CHO cells stably overexpressing human Edg-2 receptor; LPA 18:1 100 nM; fluo-4 fluorescence; triplicate; read-out: Inhibitory concentrations IC50 for inhibition of the Edg-2 receptor
pIC50: −log10 of the molar value.

# annotated cases, reported pIC50 shown
> print(dat)
                                   compound  observedmeasurement
1  COc1ccc(C(=O)NC2(C(=O)O)Cc3ccccc3C2)cc1OCc1cccc(C)c1         4.52 to 6.00
2  CSc1ccc(C(=O)NC2(C(=O)O)Cc3ccccc3C2)cc1OCCc1cccc(C)c1               > 7.00
3  COc1ccc(C(=O)NC2(C(=O)O)Cc3ccccc3C2)cc1-c1cc(C)c(OC)c(C)c1               > 7.00
4  COc1ccc(C(=O)NC2(C(=O)O)Cc3ccccc3C2)cc1-c1ccc(Cl)c(C(F)(F)F)c1         6.00 to 7.00
5  Cc1cccc(CCOc2cc(C(=O)NC3(C(=O)O)Cc4ccccc4C3)ccc2OCC2CCCCO2)c1 (stereo not drawn)               > 7.00

Q: Given COc1ncc(C(=O)NC2(C(=O)O)Cc3ccccc3C2)cc1-c1cccc(Cl)c1Cl , state its recorded pIC50.
Result: > 7.00
